All figures here come from PubChem BioAssay AID1159580.

Would you mind telling me the reported normalized growth of each entry?
- ASSAY METHOD TEXT: chemical genetic growth profiling, strain panel (AID 1159580);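 also: tested at 20 µM; growth read once vehicle control cultures reached saturation at 30 °C; 1 = growth at the plate median or of vehicle wells; lower values mean less growth of the strain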
- RUN CONDITIONS: S. cerevisiae deletion strains, growth OD, locus YHR200W, strain rpn10, stronger effect = lower value
The campaign covered roughly 5,500 compounds. About 2,000 (36%) were called active. Not shown: some 18% with an inconclusive outcome. This is one part of the list.
Enter a number only.

Prompt: If you can, please state the reported normalized growth value of `Oc1cccc(O)c1` .
Response: 0.987

Prompt: Check `CC[N+](C)(C)c1cccc(O)c1` too.
Response: 0.968

Prompt: How about `OC[C@H]1O[C@@H](O[C@@H]2[C@@H](CO)O[C@](O)(CO)[C@H]2O)[C@H](O)[C@@H](O)[C@H]1O` ?
Response: 0.978

Prompt: Another compound to look at: CO[C@H]1CC(O[C@@H]2/C(C)=C/C[C@@H]3C[C@@H](C[C@]4(CC[C@H](C)[C@@H](C5CCCCC5)O4)O3)OC(=O)[C@@H]3C=C(C)/C(=N\O)[C@H]4OC/C(=C\C=C\[C@@H]2C)[C@]43O)O[C@@H](C)C1O (some centres undefined)
Response: 0.988

Prompt: Now the compound CC(=O)O[C@@H]1CC[C@@]2(C)C(C[C@@H](OC(C)=O)[C@@]3(C)C4=CC(=O)O[C@@H](c5ccoc5)[C@]4(C)CCC23)C1(C)C (some centres undefined)
Response: 0.976

Prompt: Again, but for CC(CCc1ccccc1)NCC(O)c1ccc(O)c(C(N)=O)c1 (centres undefined)
Response: 1.01

Prompt: Now give it for `NNCc1cccc(O)c1` too.
Response: 0.986

Prompt: Then CC(C)(C)NCC(O)c1ccc(O)c(CO)c1 (centres undefined) ?
Response: 1.02

Prompt: Same again, this time with CC(=O)O[C@@H]1CC2C(C)(C)[C@H](O)C=C[C@]2(C)C2CC[C@]3(C)C(=CC(=O)O[C@H]3c3ccoc3)[C@@]21C (some centres undefined)
Response: 1

----------
- ASSAY METHOD TEXT: chemical genetic growth profiling, strain panel (AID 1159580);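 also: tested at 20 µM; growth read once vehicle control cultures reached saturation at 30 °C; 1 = growth at the plate median or of vehicle wells; lower values mean less growth of the strain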
- RUN CONDITIONS: S. cerevisiae deletion strains, growth OD, strain NNK1, stronger effect = lower value
Screen size: about 5,500 compounds; about 2,000 (36%) were called active. About 18% were inconclusive and are not listed. The list shows a part of the results.
Exercise: state measured normalized growth for each of the compounds provided.
Keep it simple and answer with nothing but the number.

Prompt: Dear colleague, I am looking for the recorded normalized growth of the following compound: `Cc1cc(/C(N)=N\OC(=O)C(C)(C)C)cc(/C(N)=N\OC(=O)C(C)(C)C)c1`
Response: 0.982

Prompt: Next up: `O=S(=O)(Oc1ccc(-c2csnn2)cc1)c1ccccc1Cl`
Response: 0.96

Prompt: Also, `O=C(Nc1ccc(F)cc1F)c1cc(Cl)c(-n2cccc2)c(Cl)c1` please.
Response: 0.977

Prompt: Likewise for `CSc1sc(C(=O)Sc2ccccc2)cc1S(=O)(=O)C(C)C` ?
Response: 0.977

Prompt: Can you check `COC(=O)C1=C(Nc2ccccc2NS(=O)(=O)c2ccc(C(F)(F)F)cc2Cl)CSC1` next?
Response: 0.971

Prompt: Also, `CC(C)(C)c1cc(C(=O)NNc2cccc(Cl)c2)n(Cc2ccccc2)n1` please.
Response: 0.961

Prompt: What do you have for `CCOC(=O)/C(C#N)=C(\Nc1ccc(C(=O)OCC)cc1)SC` ?
Response: 0.959

Prompt: Quick one: `O=C1c2cccc3c(Sc4ccccc4)ccc(c23)C(=O)N1NCCO`
Response: 0.897
